The following molecules have recorded MIC on Streptococcus Pyrogenes.
assayReadout: MIC (µg/mL)

{"columns": ["molecule", "measured"],
 "data": [
  ["COc1ccc(O)cc1C1CC2CCC1(C)C2(C)C (stereo not shown) [Example 14, 3-isobornyl-4-methoxyphenol]", 10],
  ["CC1(C)C2CCC1(C)C(c1cc(Br)ccc1O)C2 (stereo not shown) [Example 4, 2-isobornyl-4-bromophenol]", 30],
  ["CC1(C)C2CCC1(C)C(c1cc(C#N)ccc1O)C2 (stereo not shown) [Example 16, 2-isobornyl-4-cyano phenol]", 7.5],
  ["CC1(C)C2CCC1(C)C(c1cc([N+](=O)[O-])ccc1O)C2 (stereo not shown) [Example 3, 2-isobornyl-4-nitrophenol]", 5],
  ["Cc1cc(O)c(C2CC3CCC2(C)C3(C)C)cc1Cl (stereo not shown) [Example 7, 2-isobornyl-4-chloro-5-methylphenol]", 5],
  ["O=[N+]([O-])c1ccc(O)c(C2CC3CCC2C3)c1 (stereo not drawn) [Example 5, 2-exo-norbornyl-4-nitrophenol]", 10],
  ["Cc1cc(O)c(C2CC3CCC2(C)C3(C)C)cc1C#N (stereo not shown) [Example 15, 2-isobornyl-4-cyano-5-methylphenol]", 10]
]}

###

- Test system: Streptococcus Pyrogenes
assayReadout: MIC (µg/mL)

{"columns": ["molecule", "measured"],
 "data": [
  ["Cc1cc(O)c(C2CC3CCC2(C)C3(C)C)cc1[N+](=O)[O-] (stereo not drawn) [Example 1, 2-isobornyl-4-nitro-5-methylphenol]", 7.5],
  ["Oc1ccc(Br)cc1C1CC2CCC1C2 (stereo not drawn) [Example 8, 2-exo-norbornyl-4-bromophenol]", 20],
  ["CC1C2CC(CC2c2cc(Br)ccc2O)C1(C)C (stereo not drawn) [Example 6, 2-isocamphyl-4-bromophenol]", 5],
  ["CC1(C)C2CCC1(C)C(c1cc(Cl)ccc1O)C2 (stereo not drawn) [Example 11, 2-isobornyl-4-chlorophenol]", 10],
  ["Cc1cc(O)c(C2CC3CCC2(C)C3(C)C)cc1Br (stereo not drawn) [Example 2, 2-isobornyl-4-bromo-5-methyl-phenol]", 15],
  ["Cc1ccc(O)c(C2CC3CC2C(C)C3(C)C)c1 (stereo not drawn) [Example 13, 2-isocamphyl-4-methylphenol]", 20]
]}
